# System: HCT-116
# experimental.protocol: NCI-60 single dose screen, sulforhodamine B
# Type: cell-based, human
# protocol.conditions: Colon cancer HCT-116; single dose 10^−5 M
reported.property: GI% at 10^−5 M

Here is how some molecules turned out for GI% at 10^−5 M.
COc1cc(C=Nn2c(COc3ccccc3)nc3ccccc3c2=O)ccc1O [Compound 6a] = – (– means GI < 10%)
O=c1c2ccccc2nc(COc2ccccc2)n1N=CC=Cc1ccccc1 [Compound 6b] = – (– means GI < 10%)
CN1CCN(CC(=O)Nn2c(COc3ccccc3)nc3ccccc3c2=O)CC1 [Compound 8a] = 18.15%
O=c1c2ccccc2nc(COc2ccccc2)n1NS(=O)(=O)c1ccc(Cl)cc1 [Compound 5c] = 16.40%
O=C(CNn1c(COc2ccccc2)nc2ccccc2c1=O)Nc1ccc(Cl)cc1 [Compound 4c] = – (– means GI < 10%)

Could you share which GI% at 10^−5 M value was measured for O=c1c2ccccc2nc(COc2ccccc2)n1NS(=O)(=O)c1ccccc1 [Compound 5a] ?
– (– means GI < 10%)

Could you share which GI% at 10^−5 M value was measured for Cc1ccc(S(=O)(=O)Nn2c(COc3ccccc3)nc3ccccc3c2=O)cc1 [Compound 5b] ?
– (– means GI < 10%)

Could you share which GI% at 10^−5 M value was measured for O=C(CNn1c(COc2ccccc2)nc2ccccc2c1=O)Nc1ccccc1 [Compound 4a] ?
– (– means GI < 10%)

Could you share which GI% at 10^−5 M value was measured for COc1ccc(NC(=O)CNn2c(COc3ccccc3)nc3ccccc3c2=O)cc1 [Compound 4b] ?
– (– means GI < 10%)

Could you share which GI% at 10^−5 M value was measured for COc1ccc(N2CCN(CC(=O)Nn3c(COc4ccccc4)nc4ccccc4c3=O)CC2)cc1 [Compound 8c] ?
– (– means GI < 10%)

Could you share which GI% at 10^−5 M value was measured for O=C(CN1CCN(c2ccccc2)CC1)Nn1c(COc2ccccc2)nc2ccccc2c1=O [Compound 8b] ?
– (– means GI < 10%)

---

# Test system: HS 578T
# experimental.protocol: NCI-60 single dose screen, sulforhodamine B
# Type: cell-based, human
# protocol.conditions: Breast cancer HS 578T; single dose 10^−5 M
reported.property: GI% at 10^−5 M (%)
# unit: % | format: bare number

Here is how some molecules turned out for GI% at 10^−5 M.
O=c1c2ccccc2nc(COc2ccccc2)n1NS(=O)(=O)c1ccc(Cl)cc1 = 24.96
O=C(CN1CCN(c2ccccc2)CC1)Nn1c(COc2ccccc2)nc2ccccc2c1=O = 10.4
CN1CCN(CC(=O)Nn2c(COc3ccccc3)nc3ccccc3c2=O)CC1 = 13.94
O=C(CNn1c(COc2ccccc2)nc2ccccc2c1=O)Nc1ccccc1 = 11.86

# evaluate next
Could you share which GI% at 10^−5 M value was measured for `O=C(CNn1c(COc2ccccc2)nc2ccccc2c1=O)Nc1ccc(Cl)cc1` ?
19.01

---

# Tested on: normal fibroblast cells WI-38
# experimental.protocol: Cytotoxic activity in normal cells, MTT assay
# Format: cell-based
# protocol.conditions: Homo sapiens, WI-38 normal cells, 48 h, read-out: IC50 (µM) ± SD WI-38
reported.property: IC50
State the value, then name its unit.

O=c1c2ccccc2nc(COc2ccccc2)n1NS(=O)(=O)c1ccc(Cl)cc1 [Compound 5c] = 62.5 µM

Could you share which IC50 value was measured for CN1CCN(CC(=O)Nn2c(COc3ccccc3)nc3ccccc3c2=O)CC1 [Compound 8a] ?
37.3 µM

---

# System: SK-MEL-2
# experimental.protocol: NCI-60 single dose screen, sulforhodamine B
# Type: cell-based, human
# protocol.conditions: Melanoma SK-MEL-2; single dose 10^−5 M
reported.property: GI% at 10^−5 M

Here is how some compounds turned out for GI% at 10^−5 M.
COc1ccc(N2CCN(CC(=O)Nn3c(COc4ccccc4)nc4ccccc4c3=O)CC2)cc1 = – (– means GI < 10%)
Cc1ccc(S(=O)(=O)Nn2c(COc3ccccc3)nc3ccccc3c2=O)cc1 = – (– means GI < 10%)
O=C(CNn1c(COc2ccccc2)nc2ccccc2c1=O)Nc1ccccc1 = – (– means GI < 10%)
O=c1c2ccccc2nc(COc2ccccc2)n1N=CC=Cc1ccccc1 = – (– means GI < 10%)
O=C(CNn1c(COc2ccccc2)nc2ccccc2c1=O)Nc1ccc(Cl)cc1 = – (– means GI < 10%)

Could you share which GI% at 10^−5 M value was measured for `COc1cc(C=Nn2c(COc3ccccc3)nc3ccccc3c2=O)ccc1O` ?
– (– means GI < 10%)

Could you share which GI% at 10^−5 M value was measured for `O=c1c2ccccc2nc(COc2ccccc2)n1NS(=O)(=O)c1ccc(Cl)cc1` ?
25.29%

Could you share which GI% at 10^−5 M value was measured for `CN1CCN(CC(=O)Nn2c(COc3ccccc3)nc3ccccc3c2=O)CC1` ?
12.84%

Could you share which GI% at 10^−5 M value was measured for `O=c1c2ccccc2nc(COc2ccccc2)n1NS(=O)(=O)c1ccccc1` ?
– (– means GI < 10%)

Could you share which GI% at 10^−5 M value was measured for `COc1ccc(NC(=O)CNn2c(COc3ccccc3)nc3ccccc3c2=O)cc1` ?
– (– means GI < 10%)

Could you share which GI% at 10^−5 M value was measured for `O=C(CN1CCN(c2ccccc2)CC1)Nn1c(COc2ccccc2)nc2ccccc2c1=O` ?
– (– means GI < 10%)

---

# Tested on: MDA-MB-435
# experimental.protocol: NCI-60 single dose screen, sulforhodamine B
# Type: cell-based, human
# protocol.conditions: Melanoma MDA-MB-435; single dose 10^−5 M
reported.property: GI% at 10^−5 M

Here is how some compounds turned out for GI% at 10^−5 M.
O=C(CN1CCN(c2ccccc2)CC1)Nn1c(COc2ccccc2)nc2ccccc2c1=O [Compound 8b] = – (– means GI < 10%)
O=C(CNn1c(COc2ccccc2)nc2ccccc2c1=O)Nc1ccccc1 [Compound 4a] = – (– means GI < 10%)
O=c1c2ccccc2nc(COc2ccccc2)n1N=CC=Cc1ccccc1 [Compound 6b] = – (– means GI < 10%)
O=C(CNn1c(COc2ccccc2)nc2ccccc2c1=O)Nc1ccc(Cl)cc1 [Compound 4c] = – (– means GI < 10%)

Could you share which GI% at 10^−5 M value was measured for COc1ccc(N2CCN(CC(=O)Nn3c(COc4ccccc4)nc4ccccc4c3=O)CC2)cc1 [Compound 8c] ?
– (– means GI < 10%)

Could you share which GI% at 10^−5 M value was measured for O=c1c2ccccc2nc(COc2ccccc2)n1NS(=O)(=O)c1ccccc1 [Compound 5a] ?
– (– means GI < 10%)

Could you share which GI% at 10^−5 M value was measured for COc1ccc(NC(=O)CNn2c(COc3ccccc3)nc3ccccc3c2=O)cc1 [Compound 4b] ?
– (– means GI < 10%)

Could you share which GI% at 10^−5 M value was measured for COc1cc(C=Nn2c(COc3ccccc3)nc3ccccc3c2=O)ccc1O [Compound 6a] ?
– (– means GI < 10%)

---

# Test system: MALME-3M
# experimental.protocol: NCI-60 single dose screen, sulforhodamine B
# Type: cell-based, human
# protocol.conditions: Melanoma MALME-3M; single dose 10^−5 M
reported.property: GI% at 10^−5 M

Here is how some compounds turned out for GI% at 10^−5 M.
O=C(CNn1c(COc2ccccc2)nc2ccccc2c1=O)Nc1ccccc1 = – (– means GI < 10%)
O=C(CNn1c(COc2ccccc2)nc2ccccc2c1=O)Nc1ccc(Cl)cc1 = 12.02%
O=c1c2ccccc2nc(COc2ccccc2)n1NS(=O)(=O)c1ccc(Cl)cc1 = 17.90%
COc1cc(C=Nn2c(COc3ccccc3)nc3ccccc3c2=O)ccc1O = – (– means GI < 10%)
O=c1c2ccccc2nc(COc2ccccc2)n1N=CC=Cc1ccccc1 = – (– means GI < 10%)
COc1ccc(NC(=O)CNn2c(COc3ccccc3)nc3ccccc3c2=O)cc1 = – (– means GI < 10%)
COc1ccc(N2CCN(CC(=O)Nn3c(COc4ccccc4)nc4ccccc4c3=O)CC2)cc1 = – (– means GI < 10%)
O=C(CN1CCN(c2ccccc2)CC1)Nn1c(COc2ccccc2)nc2ccccc2c1=O = – (– means GI < 10%)
CN1CCN(CC(=O)Nn2c(COc3ccccc3)nc3ccccc3c2=O)CC1 = 20.47%
Cc1ccc(S(=O)(=O)Nn2c(COc3ccccc3)nc3ccccc3c2=O)cc1 = – (– means GI < 10%)

Could you share which GI% at 10^−5 M value was measured for `O=c1c2ccccc2nc(COc2ccccc2)n1NS(=O)(=O)c1ccccc1` ?
– (– means GI < 10%)

---

# Tested on: A549/ATCC
# experimental.protocol: NCI-60 single dose screen, sulforhodamine B
# Type: cell-based, human
# protocol.conditions: Non-small cell lung cancer A549/ATCC; single dose 10^−5 M
reported.property: GI% at 10^−5 M

COc1ccc(NC(=O)CNn2c(COc3ccccc3)nc3ccccc3c2=O)cc1 = – (– means GI < 10%)
O=c1c2ccccc2nc(COc2ccccc2)n1NS(=O)(=O)c1ccccc1 = – (– means GI < 10%)
O=C(CNn1c(COc2ccccc2)nc2ccccc2c1=O)Nc1ccc(Cl)cc1 = – (– means GI < 10%)
COc1cc(C=Nn2c(COc3ccccc3)nc3ccccc3c2=O)ccc1O = – (– means GI < 10%)
O=C(CNn1c(COc2ccccc2)nc2ccccc2c1=O)Nc1ccccc1 = – (– means GI < 10%)

Could you share which GI% at 10^−5 M value was measured for `COc1ccc(N2CCN(CC(=O)Nn3c(COc4ccccc4)nc4ccccc4c3=O)CC2)cc1` ?
– (– means GI < 10%)

Could you share which GI% at 10^−5 M value was measured for `CN1CCN(CC(=O)Nn2c(COc3ccccc3)nc3ccccc3c2=O)CC1` ?
– (– means GI < 10%)

Could you share which GI% at 10^−5 M value was measured for `O=C(CN1CCN(c2ccccc2)CC1)Nn1c(COc2ccccc2)nc2ccccc2c1=O` ?
– (– means GI < 10%)

Could you share which GI% at 10^−5 M value was measured for `O=c1c2ccccc2nc(COc2ccccc2)n1NS(=O)(=O)c1ccc(Cl)cc1` ?
14.05%

Could you share which GI% at 10^−5 M value was measured for `Cc1ccc(S(=O)(=O)Nn2c(COc3ccccc3)nc3ccccc3c2=O)cc1` ?
– (– means GI < 10%)

Could you share which GI% at 10^−5 M value was measured for `O=c1c2ccccc2nc(COc2ccccc2)n1N=CC=Cc1ccccc1` ?
– (– means GI < 10%)
